inhibition at 1 µM: recorded values
tested_on: B-16 mouse melanoma cells (containing MC1-R) (Mus musculus)
Construct: B-16 mouse melanoma cells (containing MC1-R); endogenous in cells; host or cells: B-16 mouse melanoma cells
Sequence (Q01727 whole entry): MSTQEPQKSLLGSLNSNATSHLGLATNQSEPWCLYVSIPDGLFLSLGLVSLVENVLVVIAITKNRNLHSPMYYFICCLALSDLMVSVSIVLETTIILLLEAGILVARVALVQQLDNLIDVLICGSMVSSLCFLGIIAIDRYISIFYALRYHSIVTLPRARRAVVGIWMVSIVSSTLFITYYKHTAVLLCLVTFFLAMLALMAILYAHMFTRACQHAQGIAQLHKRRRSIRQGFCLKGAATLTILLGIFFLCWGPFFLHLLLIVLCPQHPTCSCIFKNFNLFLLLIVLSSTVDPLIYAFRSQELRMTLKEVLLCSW
measurement_protocol: Competitive inhibition binding assay, 125I-NDP-α-MSH, B-16 mouse melanoma cell membranes
condition_summary: 1 μM test compound; 0.4 nM 125I-NDP-α-MSH; mean of triplicate; results less than 0% reported as 0%; read-out: Inhibition at 1 μM MC1-R (murine)
Numeric only. Scale: %

Previously resolved entries follow.
# compound_structure, measure, recorded_value
rows = [
    ("N[C@H](Cc1ccc(Cl)cc1)C(=O)N1CCN[C@H](Cc2ccc3ccccc3c2)C1", "inhibition at 1 µM", 5),
    ("N[C@H](Cc1ccccc1Cl)C(=O)N1CCN[C@H](Cc2ccc3ccccc3c2)C1", "inhibition at 1 µM", 4),
    ("N[C@@H](COCc1ccccc1)C(=O)N[C@H](Cc1ccc(Cl)cc1)C(=O)N1CCN[C@H](Cc2ccc3ccccc3c2)C1", "inhibition at 1 µM", 2),
]

Req: Suppose we examine the molecule N[C@@H](Cc1ccccc1)C(=O)N1C[C@@H](Cc2ccccc2)NC[C@@H]1Cc1ccccc1 ; what inhibition at 1 µM value has been reported?
Resp: 0

Req: Suppose we examine the molecule O=C(N[C@H](Cc1ccc(Cl)cc1)C(=O)N1CCN[C@H](Cc2ccc3ccccc3c2)C1)[C@H]1Cc2ccccc2CN1 ; what inhibition at 1 µM value has been reported?
Resp: 6

Req: Suppose we examine the molecule CC(=O)Oc1ccccc1C(=O)N[C@H](Cc1ccc(Cl)cc1)C(=O)N1CCN[C@H](Cc2ccc3ccccc3c2)C1 ; what inhibition at 1 µM value has been reported?
Resp: 10

Req: Suppose we examine the molecule N[C@@H](COCc1ccccc1)C(=O)N[C@H](Cc1ccccc1Cl)C(=O)N1CCN[C@H](Cc2ccc3ccccc3c2)C1 ; what inhibition at 1 µM value has been reported?
Resp: 46
